test: Microsomal stability assay, human liver microsomes; format: in vitro ADME; details: human liver microsomes 0.5 mg/mL, 1 μM compound
ASSAY_METRIC: CLINT human (mL/min/kg body weight)

The following compounds have reported results that may help.
O=C(N[C@@H](Cn1ccnc1)c1ccc(Cl)cc1Cl)c1ccc(-c2nnc(-c3ccc(Cl)c(Cl)c3)o2)cc1 = 11.4
O=C(N[C@@H](Cn1ccnc1)c1ccc(Cl)cc1Cl)c1ccc(-c2nnc(-c3ccc(C(F)(F)F)c(F)c3)o2)cc1 = 6.06
CS(=O)(=O)c1ccc(-c2nnc(-c3ccc(C(=O)N[C@@H](Cn4ccnc4)c4ccc(Cl)cc4Cl)cc3)o2)cc1Cl = 9.31

(1) O=C(N[C@@H](Cn1ccnc1)c1ccc(Cl)cc1Cl)c1ccc(-c2nnc(-c3cccc(Br)c3)o2)cc1
(2) O=C(N[C@@H](Cn1ccnc1)c1ccc(Cl)cc1Cl)c1ccc(-c2nnc(-c3cc(F)cc(-c4ncncc4F)c3)o2)cc1
(3) O=C(N[C@@H](Cn1ccnc1)c1ccc(Cl)cc1Cl)c1ccc(-c2nnc(-c3cc(F)cc(-c4ccccn4)c3)o2)cc1
Hey, can you sort those compounds up there by CLINT human, smallest first? Please write the labels in the order that was asked for.
1, 2, 3
